Source of measurements: paper PMC4351158

Tested On: T1, DegS L164A (E. coli, UniProt P0AEE3 27-355, L164A)
T1 sequence (looked up): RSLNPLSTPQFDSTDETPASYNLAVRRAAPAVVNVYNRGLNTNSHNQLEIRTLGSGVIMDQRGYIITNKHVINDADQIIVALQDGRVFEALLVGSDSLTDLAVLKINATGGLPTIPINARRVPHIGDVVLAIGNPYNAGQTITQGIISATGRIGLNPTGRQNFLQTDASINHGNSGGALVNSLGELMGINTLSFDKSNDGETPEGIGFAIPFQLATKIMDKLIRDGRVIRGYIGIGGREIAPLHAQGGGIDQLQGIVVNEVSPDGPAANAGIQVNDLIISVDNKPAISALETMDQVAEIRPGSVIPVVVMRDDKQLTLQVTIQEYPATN
Experiment: fluorescence polarisation
Where no end group is shown, it is not given here. fluorescein = fluorescein, a fluorescent label on the peptide N-terminus
Measurement Label: pKd
Conceptually, pKd converts a concentration in mol/L into minus its log10.

Prompt: Consider the binder fluorescein-DNRDGNVYYF [fluorescent OMP peptide fluorescein-DNRDGNVYYF] . State its measured pKd.
Completion: 5.55
